tested on: SN12C renal; experiment: NCI tumour cell line growth inhibition, 48 h
Field: TGI. Provide a value for each of the compounds that follow.

compound: CN(C)c1nc2nonc2nc1Nc1ccccc1
value: > 100 µM

compound: O=C1C(Cl)=C(Cl)C(Cl)(Cl)C(Cl)C1(Cl)Cl (configuration not stated)
value: 50.6 µM

compound: CC(=O)O[C@]1(C)CCC2C(C)C(=O)OC2C2C(C)[C@@H](O)CC21 (some centres not stated)
value: > 100 µM

compound: CCCCc1ccc(NS(=O)(=O)c2cc3c4c(c2)CCN4C(=O)CC3)cc1
value: > 100 µM

compound: CN(C)/C=N/S(=O)(=O)c1nn2c(C=O)c(-c3ccccc3)nc2s1
value: 49.7 µM

compound: CCOC(=O)/C=C1/Oc2ccccc2C1(C)O (configuration not stated)
value: > 100 µM

compound: NCCC1([N+](=O)[O-])C=CN=CC1 (configuration not stated)
value: > 100 µM

compound: CS(=O)(=O)OCOS(C)(=O)=O
value: > 100 µM

compound: Cc1cc2c(cc1O)[nH]c1cc3c(cc12)C=CC(C)(C)O3
value: 18.9 µM

compound: O=C(O)Cc1cc(F)ccc1C(=O)O
value: > 100 µM

Hey, quick one: what's TGI for each of these?
1. Oc1ccc(OCCOc2ccc(O)cc2)cc1
2. Cc1ccc(S(=O)(=O)N/N=C2/C3CCC(C3)C2c2ccccc2)cc1 (configuration not stated)

Result:
["> 100 µM", "> 100 µM"]

----------
test system: SK-OV-3 ovarian; assay: NCI tumour cell line growth inhibition, 48 h
metricName: TGI

molecule: COc1cc2c(Oc3ccc4[nH]c(C)cc4c3F)ncnc2cc1OCCCN1CCCC1
TGI: 19 µM

molecule: N#CC1(C#N)C(c2ccc(C3C(C#N)(C#N)C3(C#N)C#N)cc2)C1(C#N)C#N
TGI: > 100 µM

molecule: COc1ccc(C(c2ccc(OC)cc2)N2C(=O)CCC2C(=O)O)cc1 (configuration not stated)
TGI: > 100 µM

molecule: COC(=O)[C@]1(C)CC[C@]2(C)CC[C@]3(C)C4[C@H]5Oc6c(cc7c(c6C)CCC6[C@@]7(C)CC[C@@]7(C)C8[C@](C)(CCC[C@@]8(C)C(=O)OC)CC[C@]67C)O[C@H]5c5c(cc6c(c5C)O[C@@]5(C)C7=CC=C8[C@@](C)(CC[C@@]9(C)[C@@H]%10C[C@](C)(C(=O)OC)CC[C@]%10(C)CC[C@]89C)C7=CC(=O)[C@@]5(O)O6)[C@]4(C)CC[C@@]3(C)C2C1 (some centres not stated)
TGI: > 12.5 µM

molecule: Cc1cc2c(cc1O)[nH]c1cc3c(cc12)C=CC(C)(C)O3
TGI: > 25 µM

molecule: O=C1C(Cl)=C(Cl)C(Cl)(Cl)C(Cl)C1(Cl)Cl (configuration not stated)
TGI: 74.1 µM

Request: So what TGI did `Cc1cccc(NS(=O)(=O)c2ccc3c(c2)OCCOCCOCCOCCO3)c1` get with SK-OV-3 ovarian?
Result: > 100 µM

----------
system: MOLT-4 leukemia; test: NCI tumour cell line growth inhibition, 48 h
metricName: GI50

mol: Cn1cc(-c2csc(-c3c[nH]c4ccc(F)cc34)n2)c2cccnc21
value: 10.6 µM
--
mol: COc1cc2c(Oc3ccc4[nH]c(C)cc4c3F)ncnc2cc1OCCCN1CCCC1
value: 2.55 µM

Please supply GI50 for each of the following items, keeping them in order.
1. CN(c1ccc(C(=O)O)cc1)c1cc(O/N=[N+](\[O-])N(C)C)c([N+](=O)[O-])cc1[N+](=O)[O-]
2. Oc1ccc(OCCOc2ccc(O)cc2)cc1

Result:
1. 12.1 µM
2. 8.82 µM

----------
test system: OVCAR-3 ovarian; assay: NCI tumour cell line growth inhibition, 48 h
metricName: TGI

// worked examples, TGI included
molecule: CC(=O)O[C@H]1CC[C@@]2(C)C(=CC[C@@H]3C2CC[C@]2(C)Nc4c(cnn4-c4ccccc4)CC32)C1 (stereo not given in full)
assaySystem: OVCAR-3 ovarian
TGI: > 100 µM

molecule: CC(=O)N(C)C(C(=O)N1CC(C)CC1C(=O)N(C)C1C(=O)NC(CC(C)C)C(=O)N2CC(C)CC2C(=O)NC(CC(C)C)C(=O)N(C)C(C(C)C)C(=O)N2CCCC2C(=O)N(C)C(CC(C)C)C(=O)NCC(=O)OC1C)C(C)C (stereo not given)
assaySystem: OVCAR-3 ovarian
TGI: > 100 µM

molecule: Cc1ccc(S(=O)(=O)OCC23CCC(C2)C2CC23)cc1 (stereo not given)
assaySystem: OVCAR-3 ovarian
TGI: > 100 µM

Please look at the items below and tell me TGI for each one, in order.
1. CN(C)c1ccc(C2C(Cl)C(=O)N2NC(=O)c2c(Cl)c(Cl)c(Cl)c(Cl)c2-c2nc3ccccc3[nH]2)cc1 (stereo not given)
2. CC(C#N)NCc1ccc(C(C)NC(C)C#N)cc1 (stereo not given)

Result:
1. 44.7 µM
2. > 100 µM

----------
tested on: U251 CNS; experiment: NCI tumour cell line growth inhibition, 48 h
metricName: TGI

Please look at the items below and tell me TGI for each one, in order.
1. COc1cc(/C=C/c2cc(/C=C/c3ccc(O)c(OC)c3)n(C(N)=O)n2)ccc1O
2. C=C(C)[C@@H]1/C=C(/C(C)C)CC[C@@]2(C)OC2CC[C@H](C)CC1=O (stereo partly specified)
3. CC(=O)Nc1cccc2[nH]c3ccccc3c(=O)c12
4. CCCCCCCCCCCCCCCCOCC(Cl)CP(=O)(O)OP(=O)(O)OCC1OC(n2cnc3c(N)ncnc32)C(O)C1O (stereo unspecified)
5. CN(C)/C=N/S(=O)(=O)c1nn2c(C=O)c(-c3ccccc3)nc2s1
6. CN1N(c2ccccc2)C(=O)C2=NC=C(C(=O)c3ccccc3)C(=N)C21C (stereo unspecified)
7. CCCCN1C=CCN(CCCC)C1
8. Cc1ccccc1NC(=O)C(=O)C1CN(c2ccccc2)N=C1N (stereo unspecified)

Result:
10.5 µM
> 62.2 µM
75.5 µM
> 100 µM
> 31.6 µM
> 100 µM
> 100 µM
> 100 µM

// each listed compound needs a value for TGI
1. CCOC(=O)c1cc(C(=O)c2cc(OC)cc(OC)c2)n2nc(C)ccc12
2. Cc1ccc(S(=O)(=O)OCC23CCC(C2)C2CC23)cc1 (stereo unspecified)
3. Cc1cccc(C)c1NC(=O)CCC(=O)NNc1nnc(C)n1N

Result:
["> 100 µM", "> 100 µM", "> 100 µM"]

----------
Record form. Attribute: GI50. Fill in for each entry.
test system: NCI-H226 lung; test: NCI tumour cell line growth inhibition, 48 h

Some compounds with known GI50 results, for comparison:
compound: CSc1ccc(C2=NN(c3ccccc3)C(c3ccc(-c4cc(Cl)c(Cl)cc4Cl)o3)C2)cc1 (stereo not given)
value: > 100 µM

compound: Nc1nc(SCc2ccccc2)nc2[nH]ncc12
value: 13.4 µM

compound: CN(C)CCNc1c2c(c(NCCN(C)C)c3c(CN(C)C)c[nH]c13)C(=O)c1ccccc1C2=O
value: 15 µM

compound: COc1cc(/C=C/c2cc(/C=C/c3ccc(O)c(OC)c3)n(C(=O)Cc3ccccc3)n2)ccc1O
value: 2.67 µM

Here is another compound to look at.
Request: I have this compound here, `Cc1ccc(N(CC(=O)Nc2ccc(S(=O)(=O)NC3CCN(C)CC3)cc2)S(=O)(=O)c2ccc(Cl)cc2)cc1` , and I need its recorded GI50.
Result: 5.37 µM

----------
system: LOX IMVI melanoma; experiment: NCI tumour cell line growth inhibition, 48 h
metricName: TGI (µM)
One number for each entry, in µM.

compound: O=C1C(=O)/C(=C/c2ccccc2)CCCCCC/C1=C/c1ccccc1
TGI / µM: 3.53
--
compound: Cc1cc2c(cc1O)[nH]c1cc3c(cc12)C=CC(C)(C)O3
TGI / µM: 7.41
--
compound: Cc1ccc(N(CC(=O)Nc2ccc(S(=O)(=O)NC3CCN(C)CC3)cc2)S(=O)(=O)c2ccc(Cl)cc2)cc1
TGI / µM: 3.76
--
compound: O=C1C(Cl)=C(Cl)C(Cl)(Cl)C(Cl)C1(Cl)Cl (configuration not stated)
TGI / µM: 41.6

Then this compound:
Request: Please report the recorded TGI for `COc1cc2c3c(c1Oc1nnnn1-c1ccccc1)-c1c(ccc4c1OCO4)C[C@H]3N(C)CC2` .
Result: 77.5

----------
Hi there, I'd appreciate the recorded GI50 for every entry that follows.
system: OVCAR-4 ovarian; assay: NCI tumour cell line growth inhibition, 48 h

compound: CCCCc1ccc(NS(=O)(=O)c2cc3c4c(c2)CCN4C(=O)CC3)cc1
GI50: 25.1 µM
//
compound: COC1=C(C)C(=O)N2[C@@H]1[C@H](c1ccccc1)OC21C=CC(=O)C=C1
GI50: 3.51 µM
//
compound: COc1ccc(/C=C/C(=O)c2c(O)c(C)c(O)c3c2OC2=CC(O)=C(C(C)=O)C(=O)[C@]23C)cc1
GI50: 2.21 µM

Look up GI50 for the entries below, preserving their order.
1. COc1ccccc1/C=C/C(=O)c1ccc(Nc2nc(Nc3ccc(F)cc3)nc(Nc3ccc(F)cc3)n2)cc1
2. O=[N+]([O-])c1cc([N+](=O)[O-])c(NN=C(c2ccc(O)cc2)c2ccc(O)cc2)cc1Cl
3. CC(c1ccccc1)N1C(=O)CSC1=S (stereo not given)
4. O=C1C(=O)/C(=C/c2ccccc2)CCCCCC/C1=C/c1ccccc1
5. Oc1ccc(OCCOc2ccc(O)cc2)cc1

Result:
65.3 µM
1.4 µM
1.36 µM
2.78 µM
> 100 µM

Batch request: GI50 per item, same order as input.
1. COc1cc(/C=C/c2cc(/C=C/c3ccc(O)c(OC)c3)n(C(N)=O)n2)ccc1O
2. NCCCNc1nc2ccccc2c2c(=O)c3cccc(F)c3sc12

Result:
1. 0.57 µM
2. 1.76 µM
